Values were extracted from ChEMBL document CHEMBL5550220.

measured.target: COP9 signalosome complex subunit 5 (Homo sapiens, UniProt Q92905)
Sequence (Q92905 whole entry, the tested form may be a part, one chain of several): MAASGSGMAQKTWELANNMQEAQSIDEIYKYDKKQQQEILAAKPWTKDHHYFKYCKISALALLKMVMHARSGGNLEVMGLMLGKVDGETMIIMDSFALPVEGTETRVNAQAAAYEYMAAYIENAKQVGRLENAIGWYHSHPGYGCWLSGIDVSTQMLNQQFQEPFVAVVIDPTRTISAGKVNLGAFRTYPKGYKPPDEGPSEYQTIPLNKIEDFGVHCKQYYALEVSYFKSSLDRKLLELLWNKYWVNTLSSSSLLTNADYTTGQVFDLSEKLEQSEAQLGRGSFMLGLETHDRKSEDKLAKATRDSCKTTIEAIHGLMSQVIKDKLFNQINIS
assay.remarks: Inhibition of N-terminal His6-tagged CSN5 (2 to 257 residues) (unknown origin) transfected in Transetta cells preincubated for 20 mins followed by N-(2-(3-(3',6'-dihydroxy-3-oxo-3H-spiro[isobenzofuran-1,9'-xanthen]-5-yl)thioureido)ethyl)-3-(2-(5-methyl-[1,1'-biphenyl]-2-yl)-1H-pyrrolo[2,3-b]pyridin-3-yl)propanamide probe addition and measured after 1 hr by fluorescence based microplate reader assay
Type: cell-based
experimental.readout: pIC50
Note: pIC50 values are expressed as the negative base-10 logarithm of concentration in M.

Prompt: Write down pIC50 measured for item `O=C1C=CC(=O)c2c(O)ccc(O)c21`
Response: 6.04

Prompt: Write down pIC50 measured for item `COc1ccc2cc([C@@H](C)c3sc(N)nc3C(=O)O)ccc2c1`
Response: 4.77

Prompt: Write down pIC50 measured for item `CC(C)(C)c1ccc(Cc2sc(N)nc2C(=O)O)cc1`
Response: 4.08
